Biological target: Sodium-dependent serotonin transporter (Rattus norvegicus) (UniProt P31652)
Sequence (P31652 whole entry): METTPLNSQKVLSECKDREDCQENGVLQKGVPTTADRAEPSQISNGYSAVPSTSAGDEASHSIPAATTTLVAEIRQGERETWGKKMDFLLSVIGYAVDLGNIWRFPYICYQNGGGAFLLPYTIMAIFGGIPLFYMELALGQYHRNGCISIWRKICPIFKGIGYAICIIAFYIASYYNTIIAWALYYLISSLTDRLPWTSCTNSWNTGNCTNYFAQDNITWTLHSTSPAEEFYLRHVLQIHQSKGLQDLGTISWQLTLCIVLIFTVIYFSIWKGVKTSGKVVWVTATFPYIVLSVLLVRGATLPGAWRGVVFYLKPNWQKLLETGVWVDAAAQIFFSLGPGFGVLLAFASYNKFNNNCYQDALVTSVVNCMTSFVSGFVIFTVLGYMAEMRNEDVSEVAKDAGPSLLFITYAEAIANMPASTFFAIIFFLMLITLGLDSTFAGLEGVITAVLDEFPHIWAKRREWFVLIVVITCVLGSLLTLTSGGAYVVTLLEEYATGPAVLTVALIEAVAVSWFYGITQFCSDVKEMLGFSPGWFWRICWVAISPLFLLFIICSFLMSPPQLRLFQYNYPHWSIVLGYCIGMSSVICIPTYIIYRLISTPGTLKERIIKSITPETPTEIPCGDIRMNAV
Assay: Inhibition of rat synaptosomes 5HT transporter assessed as reduction in [3H]serotonin reuptake at 1 uM incubated for 15 mins by scintillation counting method relative to control
Format: subcellular
Short version: inhibition at least 70% is condition met, less is condition not met.

Ask: Check if inhibition >= 70% (inclusive). Item: COc1ccc(-c2cc(F)ccc2OCCN2CCC(c3c[nH]c4ccc(F)cc34)CC2)cc1
Result: condition not met

---

Answer each item with its documented half-life at 1 µM.
Test: Half life in rat liver microsomes at 1 uM in presence of NADPH generating system measured for 10 to 90 mins by LC-MS/MS analysis
Assay type: ADME, Microsome
Answers are plain numbers, in min.

Fc1ccc(OCCN2CCC(c3c[nH]c4ccc(F)cc34)CC2)c(-c2ccccc2)c1 :: 34.5

Field: next molecule
Ask: Would you kindly share the measured half-life at 1 µM for Fc1cccc(-c2cc(F)ccc2OCCN2CCC(c3c[nH]c4ccc(F)cc34)CC2)c1 ?
Result: 22.9

---

Test: Clearance in human liver microsomes at 1 uM in presence of NADPH generating system measured for 10 to 90 mins by LC-MS/MS analysis
Format: ADME, Microsome
Details: read-out: CLH
Answer each item with its documented microsomal CLint at 1 µM.
Numbers only, in µL/min/mg.

// below: answered molecules
Cc1ccc(Sc2ccccc2N2CCNCC2)c(C)c1 :: 6.5
Fc1ccc(OCCN2CCC(c3c[nH]c4ccc(F)cc34)CC2)c(-c2ccccc2)c1 :: 22.5
COc1ccc2c(c1)[C@]13CCCC[C@@H]1[C@H](C2)N(C)CC3 :: 31

Ask: Would you kindly share the measured microsomal CLint at 1 µM for Fc1cccc(-c2cc(F)ccc2OCCN2CCC(c3c[nH]c4ccc(F)cc34)CC2)c1 ?
Result: 22.6

---

Answer each item with its documented half-life at 1 µM.
Test: Half life in human liver microsomes at 1 uM in presence of NADPH generating system measured for 10 to 90 mins by LC-MS/MS analysis
Type: ADME, Microsome
One number for each entry, in h.

Fc1cccc(-c2cc(F)ccc2OCCN2CCC(c3c[nH]c4ccc(F)cc34)CC2)c1 :: 1.02

Field: next molecule
Ask: Would you kindly share the measured half-life at 1 µM for Fc1ccc(OCCN2CCC(c3c[nH]c4ccc(F)cc34)CC2)c(-c2ccccc2)c1 ?
Result: 1.02

---

Molecular target: 5-hydroxytryptamine receptor 7 (Homo sapiens)
Experiment: Displacement of [3H]-LSD from 5HT7 receptor (unknown origin) expressed in CHO cell membranes at 1 uM incubated for 120 mins by scintillation counting method relative to control
ASSAY_METRIC: inhibition (%)
Give bare numbers, in %.

// below: answered compounds
Cc1ccc(-c2cc(F)ccc2OCCN2CCC(c3c[nH]c4ccc(F)cc34)CC2)cc1 :: 86.2
Fc1ccc(OCCN2CCC(Cc3c[nH]c4ccc(F)cc34)CC2)c(-c2ccccc2)c1 :: 97.2

Below are some compounds; for each one, tell me its inhibition.
1. Cc1ccc(Sc2ccccc2N2CCNCC2)c(C)c1
2. Fc1cccc(-c2cc(F)ccc2OCCN2CCC(c3c[nH]c4ccc(F)cc34)CC2)c1
3. Fc1ccc(OCCN2CCC(c3c[nH]c4ccc(F)cc34)CC2)c(-c2ccccc2)c1

Result:
1: 92.5; 2: 91; 3: 90.4

---

Molecular target: 5-hydroxytryptamine receptor 7 (Homo sapiens, UniProt P34969)
Sequence (P34969 whole entry): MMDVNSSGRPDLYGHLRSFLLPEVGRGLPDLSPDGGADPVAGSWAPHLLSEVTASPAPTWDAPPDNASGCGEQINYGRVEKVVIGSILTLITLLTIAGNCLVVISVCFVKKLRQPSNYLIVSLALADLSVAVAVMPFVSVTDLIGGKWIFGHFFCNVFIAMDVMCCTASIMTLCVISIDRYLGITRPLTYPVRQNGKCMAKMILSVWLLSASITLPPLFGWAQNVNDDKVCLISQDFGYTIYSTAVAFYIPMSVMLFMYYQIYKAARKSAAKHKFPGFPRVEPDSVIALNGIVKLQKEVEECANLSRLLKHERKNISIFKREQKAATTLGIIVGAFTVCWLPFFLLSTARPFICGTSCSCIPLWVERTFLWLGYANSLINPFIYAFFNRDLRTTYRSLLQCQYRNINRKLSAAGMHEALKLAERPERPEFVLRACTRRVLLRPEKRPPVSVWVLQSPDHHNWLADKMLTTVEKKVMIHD
Experiment: Displacement of [3H]-LSD from 5HT7 receptor (unknown origin) expressed in CHO cell membranes at 1 uM incubated for 120 mins by scintillation counting method relative to control
Short version: inhibition at least 90% is yes (1), less is no (0).

Ask: Check if inhibition >= 90% (inclusive). Item: COc1ccc(-c2cc(F)ccc2OCCN2CCC(c3c[nH]c4ccc(F)cc34)CC2)cc1
Result: yes (1)

Ask: Next up: Fc1ccc(OCCCN2CCC(c3c[nH]c4ccc(F)cc34)CC2)c(-c2ccccc2)c1
Result: no (0)

Ask: Next up: Fc1ccc2[nH]cc(C3CCN(CCOc4ccc(F)c(-c5ccccc5)c4)CC3)c2c1
Result: no (0)

Ask: Next up: Fc1ccc(-c2cc(F)ccc2OCCN2CCC(c3c[nH]c4ccc(F)cc34)CC2)cc1
Result: no (0)

Ask: Next up: Fc1ccc(OCCN2CCC(CCc3c[nH]c4ccc(F)cc34)CC2)c(-c2ccccc2)c1
Result: yes (1)

Ask: Next up: N#Cc1ccc(-c2cc(F)ccc2OCCN2CCC(c3c[nH]c4ccc(F)cc34)CC2)cc1
Result: yes (1)

Ask: Next up: Fc1ccc(OCCCN2CCC(Cc3c[nH]c4ccc(F)cc34)CC2)c(-c2ccccc2)c1
Result: no (0)

Ask: Next up: Fc1ccc(OCCN2CCC(c3c[nH]c4ccc(F)cc34)CC2)c(-c2ccc(Cl)cc2)c1
Result: no (0)
